// provenance: patent US20210101928A1

Molecular target: GABAA receptor ([35S]-TBPS binding, rat brain cortical membranes)
Assay: Steroid inhibition of [35S]-TBPS binding
Settings: Table II-2, 3 nM [35S]-TBPS, in the presence of 5 mM GABA, read-out: TBPS IC50
Experimental: [^35S]-t-Butylbicyclophosphorothionate (TBPS) binding assays using rat brain cortical membranes in the presence of 5 mM GABA has been described (Gee et al, J. Pharmacol. Exp. Ther. 1987, 241, 346-353; Hawkinson et al, Mol. Pharmacol. 1994, 46, 977-985; Lewin, A. H et al., Mol. Pharmacol. 1989, 35, 189-194). Briefly, cortices are rapidly removed following decapitation of carbon dioxide-anesthetized Sprague-Dawley rats (200-250 g). […]
Each item that follows carries a reported IC50.

Notebook entry, GABAA receptor ([35S]-TBPS binding, rat brain cortical membranes) assay: IC50 of CC[C@]12CC[C@@](C)(O)C[C@H]1CC[C@H]1[C@@H]3CC[C@H](C(=O)N4CC[C@@H](c5ccccc5)C4)[C@@]3(C)CC[C@@H]12 [II-1] = ?
10 to 100 nM

Another compound: CCOC[C@@]1(O)CC[C@@]2(CC)[C@H](CC[C@H]3[C@@H]4CC[C@H](C(=O)N5CCCC[C@@H]5c5ccc(F)cc5)[C@@]4(C)CC[C@@H]32)C1 [II-50]
100 to 1000 nM

Another compound: CC[C@]12CC[C@@](C)(O)C[C@@H]1CC[C@H]1[C@@H]3CC[C@H](C(C)=O)[C@@]3(C)CC[C@@H]12 [II-A5]
10 to 100 nM

Another compound: CC[C@]12CC[C@@](C)(O)C[C@@H]1CC[C@H]1[C@@H]3CC[C@H](C(=O)Cn4nccn4)[C@@]3(C)CC[C@@H]12 [II-A8a]
10 to 100 nM

Another compound: CC[C@]12CC[C@@](C)(O)C[C@H]1CC[C@H]1[C@@H]3CC[C@H](C(=O)N4CCCC[C@@H]4C)[C@@]3(C)CC[C@@H]12 [II-20]
10 to 100 nM

###

Each item that follows carries a reported IC50.
Biological target: GABAA receptor ([35S]-TBPS binding, rat brain cortical membranes)
Test: Steroid inhibition of [35S]-TBPS binding
Details: Table III-1 (biological data), 3 nM [35S]-TBPS, in the presence of 5 mM GABA, read-out: TBPS IC50
Method: [^35S]-t-Butylbicyclophosphorothionate (TBPS) binding assays using rat brain cortical membranes in the presence of 5 mM GABA has been described (Gee et al, J. Pharmacol. Exp. Ther. 1987, 241, 346-353; Hawkinson et al, Mol. Pharmacol. 1994, 46, 977-985; Lewin, A. H et al., Mol. Pharmacol. 1989, 35, 189-194). Briefly, cortices are rapidly removed following decapitation of carbon dioxide-anesthetized Sprague-Dawley rats (200-250 g). […]

CC[C@]12CC[C@H]3[C@@H](CC[C@@H]4C[C@@](O)(COC)CC[C@@H]43)[C@@H]1CC[C@@H]2C(=O)Cn1cc(C#N)cn1 [III-B17]    10 to 100 nM
CC[C@]12CC[C@H]3[C@@H](CC[C@H]4C[C@@](O)(COC)CC[C@@H]43)[C@@H]1CC[C@@H]2C(C)=O [III-A20]    10 to 100 nM
COC[C@]12CC[C@H]3[C@@H](CC[C@@H]4C[C@](C)(O)CC[C@@H]43)[C@@H]1CC[C@@H]2C(C)=O [III-C11]    10 to 100 nM
COC[C@]12CC[C@H]3[C@@H](CC[C@@H]4C[C@](C)(O)CC[C@@H]43)[C@@H]1CC[C@@H]2C(=O)Cn1cc(C#N)cn1 [III-C13]    < 10 nM
CC[C@]12CC[C@H]3[C@@H](CC[C@@H]4C[C@@](O)(COC)CC[C@@H]43)[C@@H]1CC[C@@H]2C(C)=O [III-B15]    10 to 100 nM
CC[C@]12CC[C@H]3[C@@H](CC[C@H]4C[C@@](O)(COC)CC[C@@H]43)[C@@H]1CC[C@@H]2C(=O)Cn1nnc(C)n1 [III-A22]    < 10 nM

Attention now shifts to the item below.
Item under review: CC[C@]12CC[C@H]3[C@@H](CC[C@@H]4C[C@](C)(O)CC[C@@H]43)[C@@H]1CC[C@@H]2C(=O)Cn1cc(C#N)cn1 [III-A10] . Reported IC50?
< 10 nM
